# Test system: SK-MEL-28 melanoma
# experiment-notes: NCI-60 one-dose screen, 48 h (100 = growth as untreated, 0 = no growth, -100 = all killed)
# condition-description: 10 µM unless noted
About 83,000 compounds went through this panel and 20% of them were active in at least one assay; those are over-represented in the sample as a whole.
Please respond with reported growth for every item in the list.
Please give a number only; it is taken to be in %.

Record O=C(Nc1nc(-c2ccccc2Cl)cs1)c1cc(-c2ccc(Br)cc2)nc2ccccc12 . Reported growth: 80.3

Record C=C1C(=O)O[C@H]2[C@H]1CC/C(COC(=O)c1cccnc1N)=C\CC[C@@]1(C)O[C@@H]21 . Reported growth: 19.6

Record O=C(/C(=C/c1ccc([N+](=O)[O-])cc1)SCc1ccccc1)c1ccc(Cl)cc1 . Reported growth: 94.6

Record O=C(N/N=C/C[C@@H]1[C@@H](/C=C/[C@@H](O)COc2cccc(Cl)c2)[C@H](O)C[C@@H]1O)c1ccncc1 . Reported growth: 103

Record CCCCCCN1C(=O)CN=C1Nc1ccc2cc3ccc(NC4=NCC(=O)N4CCCCCC)cc3nc2c1 . Reported growth: 85.9

Record COc1cccc(NC(=O)Nc2ccc(Nc3ncnc4[nH]c(C)c(C)c34)cc2)c1 . Reported growth: 104

Record CO[C@@]12C=C[C@@]34CCC(=O)N3c3ccccc3[C@@H](O1)C4C2 . Reported growth: 113

Record COc1cc(/C=C/C(=O)c2cccs2)ccc1OCc1ccc(Cl)nc1 . Reported growth: 92

Record CC(C)NS(=O)(=O)c1cccc(-c2ccc3c(=O)n(CCCN)c4c(c3c2)C(=O)c2ccccc2-4)c1 . Reported growth: 110

Record c1ccc(-c2cn3ccnc3c(-c3ccc4c(c3)ncn4C3CCCCC3)n2)cc1 . Reported growth: 111

Record COc1ccc(NC(=O)c2ccc(Nc3ncnc4[nH]c(C)c(C)c34)cc2)cc1 . Reported growth: 102

Record C=C1C(=O)O[C@H]2[C@H]1CC/C(COC(=O)n1ccnc1)=C\CC[C@@]1(C)O[C@@H]21 . Reported growth: 102

Record CC[C@]12C=CCN3CC[C@@]4(c5cc(NC(=O)CCC(=O)O[C@H]6CC[C@H]7[C@@H]8CC[C@H]9CC(=O)CC[C@]9(C)[C@H]8CC[C@]67C)c(OC)cc5N(C)[C@H]4[C@@](O)(C(=O)OC)[C@@H]1OC(C)=O)[C@@H]32 . Reported growth: 92.5

Record CCCCn1c(=O)c(/C=C/C(=O)/C=C/c2ccc(O)c(OC)c2)cc2ccc(Cl)cc21 . Reported growth: 38.8

Record CCOC(=O)c1c(C)nc2c(c1N)/C(=C/c1ccc[nH]1)C(=O)N2Cc1ccc(C(F)(F)F)cc1 . Reported growth: 89.6

Record Nc1ccccc1NC(=O)c1ccc(CSc2nc(N3CCOCC3)c3cccn3n2)cc1 . Reported growth: 16.3

Record Fc1ccc(N/N=C/c2ccc(-n3cccn3)cc2)cc1 . Reported growth: 112
